Tested on: johnsongrass
Experiment: Test F preemergence test
Assay type: in vivo, Sorghum halepense
Conditions: Preemergence; 16 g ai/ha; scale 0 to 100
endpoint: Plant response rating, Johnsongrass
Form: value (number only, do not type unit).

Reference set, count: 3
>>> readoutnumber("Cn1nc(C(F)(F)F)c(CS(=O)(=O)c2cccc[n+]2[O-])c1OCC(F)(F)F")
70
>>> readoutnumber("Cn1nc(C(F)(F)F)c(CS(=O)(=O)c2cccc[n+]2[O-])c1OC(F)F")
75
>>> readoutnumber("CC(c1c(C(F)(F)F)nn(C)c1OC(F)F)S(=O)(=O)c1cccc[n+]1[O-] (stereo not shown)")
50

Request: Need Plant response rating, Johnsongrass of Cc1cc[n+]([O-])c(S(=O)(=O)Cc2c(C(F)(F)F)nn(C)c2Cl)c1 , thanks.
Response: 40

---

Test system: johnsongrass
Assay: Test C pre-/postemergence test
Format: in vivo, Sorghum halepense
Conditions: preemergence, 250 g ai/ha; scale 0 (no effect) to 100 (complete control)
endpoint: Johnsongrass plant response rating

Solved entries:
>>> result("Cn1nc(C(F)(F)F)c(C(Cl)S(=O)(=O)c2cccc[n+]2[O-])c1OCC(F)(F)F (racemic)")
90
>>> result("Cn1nc(C(F)(F)C(F)(F)F)c(C[S+]([O-])c2cccc[n+]2[O-])c1OCC(F)(F)F (stereo not shown)")
95
>>> result("CC(Oc1c(CS(=O)(=O)c2cccc[n+]2[O-])c(C(F)(F)F)nn1C)C(F)(F)F (stereo not shown)")
100

As a next step, examine the molecule that follows.
Request: Look up Johnsongrass plant response rating with johnsongrass for this molecule: Cn1nc(C(F)(F)F)c(C[S+]([O-])c2ccc(F)c[n+]2[O-])c1Cl (stereo not shown)
Response: 100

---

Test system: crabgrass
Test: Test A pre-/postemergence greenhouse test
Format: in vivo, Digitaria sanguinalis
Details: Preemergence, 125 g ai/ha; 0 to 100 scale, 0 no effect, 100 complete control
Rule: Crabgrass, Large plant response rating of 70 or more gives MET; anything lower gives NOT MET.

>>> labelvalue("Cc1cc[n+]([O-])c(S(=O)(=O)Cc2c(C(F)(F)F)nn(C)c2OC(C)C(F)(F)F)c1 (stereo not drawn)")
"MET"
>>> labelvalue("CC(c1c(C(F)(F)F)nn(C)c1Cl)[S+]([O-])c1cccc[n+]1[O-] (mixture of isomers)")
"NOT MET"
>>> labelvalue("CC(C)c1cc[n+]([O-])c(S(=O)(=O)Cc2c(C(F)(F)F)nn(C)c2OC(F)F)c1")
"NOT MET"
>>> labelvalue("CCCc1cc[n+]([O-])c(S(=O)(=O)Cc2c(C(F)(F)F)nn(C)c2OCC(F)(F)F)c1")
"MET"
>>> labelvalue("CC(C)c1cc[n+]([O-])c([S+]([O-])Cc2c(C(F)(F)F)nn(C)c2OC(F)F)c1 (stereo not drawn)")
"MET"
>>> labelvalue("Cc1cc[n+]([O-])c(S(=O)(=O)C(C)c2c(C(F)(F)F)nn(C)c2OC(F)F)c1 (stereo not drawn)")
"MET"
>>> labelvalue("CC(c1c(C(F)(F)F)nn(C)c1OC(F)F)S(=O)(=O)c1ccc(Br)c[n+]1[O-] (racemic)")
"NOT MET"
>>> labelvalue("Cn1nc(C(F)(F)F)c(C[S+]([O-])c2cc(C3CC3)cc[n+]2[O-])c1OCC(F)(F)F (stereo not drawn)")
"MET"
>>> labelvalue("CC(c1c(C(F)(F)F)nn(CC(F)(F)F)c1Cl)S(=O)(=O)c1ccc(Cl)c[n+]1[O-] (stereo not drawn)")
"MET"
>>> labelvalue("CC(C)c1cc[n+]([O-])c(S(=O)(=O)Cc2c(C(F)(F)F)nn(C)c2OCC(F)(F)F)c1")
"NOT MET"

Request: State whether the measured Crabgrass, Large plant response rating reaches 70, counting equality as reaching it, for Cn1nc(C(F)(F)F)c(C[S+]([O-])c2ccc(Cl)c[n+]2[O-])c1Cl (racemic)
Response: MET

Request: Another: Cn1nc(C(F)(F)F)c(CS(=O)(=O)c2ccc(Cl)c[n+]2[O-])c1OCC(F)F
Response: NOT MET

Request: And for Cc1cc(S(=O)(=O)Cc2c(C(F)(F)F)nn(C)c2OCC(F)(F)F)[n+]([O-])cc1Cl ?
Response: NOT MET

Request: Follow-up entry: Cc1cc[n+]([O-])c(S(=O)(=O)Cc2c(C(F)(F)C(F)(F)F)nn(C)c2OCC(F)(F)F)c1
Response: MET

---

Tested on: cocklebur
Test: Test C pre-/postemergence test
Type: in vivo, Xanthium strumarium
Conditions: preemergence, 250 g ai/ha; scale 0 (no effect) to 100 (complete control)
endpoint: Cocklebur plant response rating
# print the numeric value only

Worked examples follow.
>>> readoutnumber("CCc1cc[n+]([O-])c(S(=O)(=O)Cc2c(C(F)(F)F)nn(C)c2OC(F)F)c1 [Compound 102]")
0
>>> readoutnumber("C#CCOc1c(CS(=O)(=O)c2cccc[n+]2[O-])c(C(F)(F)F)nn1C [Compound 103]")
30
>>> readoutnumber("CCn1nc(C(F)(F)F)c(C[S+]([O-])c2cccc[n+]2[O-])c1OCC(F)(F)F (racemic) [Compound 65]")
90
>>> readoutnumber("CC(Oc1c(C[S+]([O-])c2ccc(Cl)c[n+]2[O-])c(C(F)(F)F)nn1C)C(F)(F)F (stereo not drawn) [Compound 87]")
40
>>> readoutnumber("Cn1nc(OC(F)F)c(CS(=O)(=O)c2cccc[n+]2[O-])c1C(F)(F)F [Compound 80]")
80
>>> readoutnumber("Cn1nc(C(F)(F)F)c(C(Cl)S(=O)(=O)c2cccc[n+]2[O-])c1OC(F)F (stereo not drawn) [Compound 51]")
0
>>> readoutnumber("CC(C)c1cc[n+]([O-])c([S+]([O-])Cc2c(C(F)(F)F)nn(C)c2OC(F)F)c1 (stereo not drawn) [Compound 109]")
60
>>> readoutnumber("Cn1nc(C(F)(F)F)c(C[S+]([O-])c2ccc(F)c[n+]2[O-])c1OC(F)F (stereo not drawn) [Compound 58]")
40

Request: Look up Cocklebur plant response rating for this molecule: [O-][n+]1cc(Cl)ccc1[S+]([O-])Cc1c(C(F)(F)F)nn(CC(F)(F)F)c1Cl (stereo not drawn) [Compound 47]
Response: 0

Request: Now try CC(Oc1c(CS(=O)(=O)c2cccc[n+]2[O-])c(C(F)(F)F)nn1C)C(F)(F)F (stereo not drawn) [Compound 82] .
Response: 0

Request: What do we get for Cc1cc[n+]([O-])c(S(=O)(=O)Cc2c(C(F)(F)F)nn(C)c2OCC(F)F)c1 [Compound 94] ?
Response: 0

Request: Cc1cc[n+]([O-])c(S(=O)(=O)Cc2c(C(F)(F)F)nn(C)c2OC(C)C(F)(F)F)c1 (stereo not drawn) [Compound 96]
Response: 40

---

// reported Plant response rating, Field Violet for each item listed
System: field violet
Assay: Test D preemergence test
Format: in vivo, Viola arvensis
Conditions: 125 g ai/ha, scale 0 to 100
Form field (numeric): enter value without unit.

Request: Which value of Plant response rating, Field Violet has been reported for Cc1cc[n+]([O-])c(S(=O)(=O)Cc2c(C(F)(F)F)nn(C)c2OC(F)F)c1 in the records?
Response: 95

Request: Param item: Cc1cc[n+]([O-])c(S(=O)(=O)C(Cl)c2c(C(F)(F)F)nn(C)c2Cl)c1 (racemic)
Response: 30

Request: // query: Cn1nc(C(F)(F)F)c(CS(=O)(=O)c2cccc[n+]2[O-])c1OC(F)F
Response: 0

Request: Input Cc1cc[n+]([O-])c(S(=O)(=O)C(C)c2c(C(F)(F)F)nn(C)c2Cl)c1 (racemic)
Response: 0

---

Test system: woolly cupgrass
Assay: Test C pre-/postemergence test
Assay type: in vivo, Eriochloa villosa
Settings: 31 g ai/ha, Preemergence; scale 0 to 100
Consider the following compounds and their measured Cupgrass, Woolly plant response rating readings.

>>> result("Cc1cc[n+]([O-])c(S(=O)(=O)C(C)c2c(C(F)(F)F)nn(C)c2Cl)c1 (racemic)")
85

Request: Consider the compound shown here: Cn1nc(C(F)(F)F)c(C[S+]([O-])c2ccc(Cl)c[n+]2[O-])c1OC(F)F (stereo not shown) What is its recorded Cupgrass, Woolly plant response rating?
Response: 90

Request: Now consider CC(c1c(C(F)(F)F)nn(C)c1Cl)S(=O)(=O)c1cccc[n+]1[O-] (stereo not shown) and answer again.
Response: 75

Request: Also need Cn1nc(C(F)(F)F)c(C[S+]([O-])c2ccc(Br)c[n+]2[O-])c1OC(F)F (racemic) , thanks.
Response: 20

---

Reported Plant response rating, Ragweed by item:
Tested on: common ragweed
Experiment: Test F preemergence test
Type: in vivo, Ambrosia elation
Conditions: 16 g ai/ha, preemergence; scale 0 to 100
// keep it numeric: no unit symbol after the value

>>> readoutnumber("Cn1nc(C(F)(F)F)c(C[S+]([O-])c2ccc(Cl)c[n+]2[O-])c1OCC(F)F (stereo not shown)")
0
>>> readoutnumber("Cn1nc(C(F)(F)F)c(C[S+]([O-])c2ccc(F)c[n+]2[O-])c1OCC(F)(F)F (stereo not shown)")
20
>>> readoutnumber("CC(Oc1c(C[S+]([O-])c2ccc(Cl)c[n+]2[O-])c(C(F)(F)F)nn1C)C(F)(F)F (stereo not shown)")
0

Next item in the queue.
Request: For common ragweed, provide Plant response rating, Ragweed of CC(Oc1c(C[S+]([O-])c2cccc[n+]2[O-])c(C(F)(F)F)nn1C)C(F)(F)F (stereo not shown) please.
Response: 0
